# Test system: A549
# assay_comment: Euclidean distance of Cell Painting phenotypic profile (signed KS, 77 features) to DMSO centroid (dimensionless distance); 5 or 10 uM (library dependent); higher = stronger phenotypic change vs DMSO (phenoactivity)
# applied_conditions: 48 h
Where a name gives a salt, the structure may show the parent alone.
endpoint: Euclidean distance

[[record]]
compound = "NC(=O)NO [Hydroxyurea]"
assay_result = 0.771

[[record]]
compound = "NC1(c2ccc(-c3nc4ccn5c(=O)[nH]nc5c4cc3-c3ccccc3)cc2)CCC1"
assay_result = 2.58

[[record]]
compound = "COc1cc2c(cc1-c1c(C)noc1C)ncc1[nH]c(=O)n([C@H](C)c3ccccn3)c12"
assay_result = 2.24

[[record]]
compound = "COc1cccc2c1C(=O)c1c(O)c3c(c(O)c1C2=O)C[C@@](O)(C(=O)CO)C[C@@H]3O[C@H]1C[C@H](N)[C@@H](O)[C@H](C)O1 [Epirubicin HCl]"
assay_result = 4.33

